System: T1, human CD19 (human, UniProt P15391 20-556)
T1 construct: CD19 as expressed on Raji, NALM-6 and SU-DHL-6 cells; also called CD19 antigen; B-cell surface antigen B4
T1 sequence: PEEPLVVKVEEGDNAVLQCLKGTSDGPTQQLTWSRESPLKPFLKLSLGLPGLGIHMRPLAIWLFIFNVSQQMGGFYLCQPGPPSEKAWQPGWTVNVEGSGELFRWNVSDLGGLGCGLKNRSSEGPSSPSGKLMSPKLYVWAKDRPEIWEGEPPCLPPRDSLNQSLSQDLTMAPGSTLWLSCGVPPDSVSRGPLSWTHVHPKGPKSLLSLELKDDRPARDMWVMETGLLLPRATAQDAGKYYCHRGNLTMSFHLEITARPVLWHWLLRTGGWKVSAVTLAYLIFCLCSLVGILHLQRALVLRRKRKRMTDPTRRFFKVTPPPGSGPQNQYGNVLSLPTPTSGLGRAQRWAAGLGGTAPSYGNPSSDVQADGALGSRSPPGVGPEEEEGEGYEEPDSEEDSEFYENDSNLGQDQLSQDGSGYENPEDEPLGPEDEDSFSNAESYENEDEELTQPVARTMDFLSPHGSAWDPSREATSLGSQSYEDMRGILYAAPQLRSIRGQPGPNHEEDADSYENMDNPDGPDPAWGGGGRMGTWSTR
Assay Info: flow cytometry, Raji cells, MPF vs chimeric FMC63
// relative MPF (% of chimeric FMC63) lookup, one value per entry
Reply with just the number (in %).

Field: example entries. Status: answers known.
{"columns": ["Binder", "Unit Info", "relative MPF (% of chimeric FMC63)"],
 "data": [
  ["VH16-R71K/VL43-Y87F (antibody, human IgG1, name in Kabat numbering, V domains shown, substitutions in Kabat numbering) VH: QVQLVQSGGGVVQPGRSLRLSCAASGVSLPDYGVSWVRQAPGKGLEWVAVIWGSETTYYNSALKSRFTISKDNSKNTLYLQMNSLRAEDTAVYYCARHYYYGGSYAMDYWGQGTLVTVSS VL: DIVMTQTPSSLSASVGDRVTITCRASQDISKYLNWYQQKPGKAPKLLIYHTSRLHSGVPSRFSGSGSGTDFTLTISSLQPEDFATYFCQQGNTLPYTFGPGTKVDIKR", "%", 4.19],
  ["VH16-G42R/VL43-P44V (antibody, human IgG1, name in Kabat numbering, V domains shown, substitutions in Kabat numbering) VH: QVQLVQSGGGVVQPGRSLRLSCAASGVSLPDYGVSWVRQAPRKGLEWVAVIWGSETTYYNSALKSRFTISRDNSKNTLYLQMNSLRAEDTAVYYCARHYYYGGSYAMDYWGQGTLVTVSS VL: DIVMTQTPSSLSASVGDRVTITCRASQDISKYLNWYQQKPGKAVKLLIYHTSRLHSGVPSRFSGSGSGTDFTLTISSLQPEDFATYYCQQGNTLPYTFGPGTKVDIKR", "%", 8.33]
]}

Input line: Returns the measured relative MPF (% of chimeric FMC63) for the input binder. Input: VH16-R94K/VL43-Y87F (antibody, human IgG1, V domains shown, Full-length human IgG1/kappa; substitutions in Kabat numbering) VH: QVQLVQSGGGVVQPGRSLRLSCAASGVSLPDYGVSWVRQAPGKGLEWVAVIWGSETTYYNSALKSRFTISRDNSKNTLYLQMNSLRAEDTAVYYCAKHYYYGGSYAMDYWGQGTLVTVSS VL: DIVMTQTPSSLSASVGDRVTITCRASQDISKYLNWYQQKPGKAPKLLIYHTSRLHSGVPSRFSGSGSGTDFTLTISSLQPEDFATYFCQQGNTLPYTFGPGTKVDIKR
Output line: 31.8

# credit: patent US20100215651A1
